molecular target: OsWRKY34 (Oryza sativa, UniProt Q0JBA9 1-250); assay: protein-binding microarray (RPBM); PBS, 2% BSA, 51.3 ng/ul salmon testes DNA, 50 uM zinc acetate, 200 nM TF, 25 C, 1 h; high values mean tight binding; settings: protein: recombinant; tags: N-terminal polyhistidine and DsRed monomer fusion (pET32a); label: CyDye5-dUTP incorporated in the synthesized complementary strand; 3' TTTTT single-stranded linker to array surface; dsDNA, one strand shown
Sequence (Q0JBA9 entry or part of it): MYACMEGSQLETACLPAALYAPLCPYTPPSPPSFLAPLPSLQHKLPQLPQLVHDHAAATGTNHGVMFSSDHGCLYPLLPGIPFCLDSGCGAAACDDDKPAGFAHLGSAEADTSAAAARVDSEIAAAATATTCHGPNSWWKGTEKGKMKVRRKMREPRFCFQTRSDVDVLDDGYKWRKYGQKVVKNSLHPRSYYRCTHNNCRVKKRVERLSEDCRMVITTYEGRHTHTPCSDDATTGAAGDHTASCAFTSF
Over roughly 68,000 sequences, “fluorescence intensity (a.u.)” has its median near 9,100; the highest 2% begin near 16,000. Many of the other results were omitted from the sample, so the highest values are more common in it than they were.
// binding signal lookup, one value per entry

Some solved cases for reference:
[[record]]
biopolymer_sequence = "CAAATGGCCCACCTGTCCTAGCTTGGCCCGGCCCGGGCACCGGAGTCACCTAGTGCAG"
endpoint_result = "8680 fluorescence intensity (a.u.)"

[[record]]
biopolymer_sequence = "TTGCTTCCTTTGTCCTTACTGACATTATTACCTCAGAGACCGGAGTCACCTAGTGCAG"
endpoint_result = "8870 fluorescence intensity (a.u.)"

[[record]]
biopolymer_sequence = "CTGTATCCATCCCTAAATATTTGACGCCGTTGACTTTTCTCGGAGTCACCTAGTGCAG"
endpoint_result = "25600 fluorescence intensity (a.u.)"

[[record]]
biopolymer_sequence = "CGTCTTGTCTTGGCGTATGTTGGCTTGTATGTTGTTCCGTCGGAGTCACCTAGTGCAG"
endpoint_result = "10500 fluorescence intensity (a.u.)"

[[record]]
biopolymer_sequence = "GTGATGTTCATGCGACAATGTGTTTCTTCCTGGACATATTCGGAGTCACCTAGTGCAG"
endpoint_result = "8050 fluorescence intensity (a.u.)"

[[record]]
biopolymer_sequence = "TACCTCCGTTTTCTAATAGATGACGCCGTTGACTTTTTCTCGGAGTCACCTAGTGCAG"
endpoint_result = "20700 fluorescence intensity (a.u.)"

[[record]]
biopolymer_sequence = "TACCTCCGTTTTTTAATAGATGACGCCGTTGACTTTTTCTCGGAGTCACCTAGTGCAG"
endpoint_result = "25000 fluorescence intensity (a.u.)"

[[record]]
biopolymer_sequence = "TAGGTGTGGTGTGTGGAGAAGCGGTGGACCGACCGACGACCGGAGTCACCTAGTGCAG"
endpoint_result = "8450 fluorescence intensity (a.u.)"

[[record]]
biopolymer_sequence = "GTCGCGCCTGACGCCGCCGTTGCGCCTGCCACCGCCTGTCCGGAGTCACCTAGTGCAG"
endpoint_result = "8220 fluorescence intensity (a.u.)"

[[record]]
biopolymer_sequence = "CCACACCACAGTCGCCTCTCTCCTCTTTCACCGAGAAGCGCGGAGTCACCTAGTGCAG"
endpoint_result = "8150 fluorescence intensity (a.u.)"


Entry TGCACCGCGCGCAGGGTAGGGTGGGCGTCCTTGCCATTGTCGGAGTCACCTAGTGCAG , binding signal reported as 8740 fluorescence intensity (a.u.)

Entry TTCTACAGGAGTATCATCATCTTTGTGTTCTGGCTCCTGTCGGAGTCACCTAGTGCAG , binding signal reported as 9040 fluorescence intensity (a.u.)

Entry CATTATTAAAATATATATGTGTTACATTCGGTATTATATTCGGAGTCACCTAGTGCAG , binding signal reported as 8650 fluorescence intensity (a.u.)

Entry GAATTAAACTTTGCATGGTTTCTGTTTGGTCAAACTTCTCCGGAGTCACCTAGTGCAG , binding signal reported as 9130 fluorescence intensity (a.u.)

Entry TCCCTCCGTTTTTTAATAGATGATGCCGTTGACTTTTTCTCGGAGTCACCTAGTGCAG , binding signal reported as 19300 fluorescence intensity (a.u.)
